This collection of values is drawn from paper PMC10246735.

Assignment: determine reported high spin content for the given compounds.
# study-system: recombinant CYP3A4 (Homo sapiens)
# Sequence (P08684 whole entry): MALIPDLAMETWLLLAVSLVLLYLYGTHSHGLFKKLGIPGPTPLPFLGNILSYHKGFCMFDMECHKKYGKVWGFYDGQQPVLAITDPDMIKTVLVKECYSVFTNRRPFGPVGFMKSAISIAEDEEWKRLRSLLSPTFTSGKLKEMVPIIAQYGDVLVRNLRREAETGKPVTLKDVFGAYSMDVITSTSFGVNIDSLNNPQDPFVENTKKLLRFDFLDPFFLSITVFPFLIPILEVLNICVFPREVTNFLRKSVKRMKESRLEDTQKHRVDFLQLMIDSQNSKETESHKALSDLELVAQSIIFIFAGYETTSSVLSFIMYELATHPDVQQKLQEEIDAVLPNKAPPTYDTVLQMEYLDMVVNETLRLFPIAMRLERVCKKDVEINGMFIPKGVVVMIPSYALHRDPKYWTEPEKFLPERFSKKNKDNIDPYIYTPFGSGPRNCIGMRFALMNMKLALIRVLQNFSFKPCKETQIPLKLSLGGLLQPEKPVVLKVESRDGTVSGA
# run-description: Equilibrium spectral titration of recombinant CYP3A4
# Format: binding
# measurement-parameters: estimated at the end of equilibrium titrations relative to azamulin-bound CYP3A4 (100% high-spin conversion)
Numbers only here, please. The scale is %.

In: Any idea what high spin content was measured for C=CC[C@]1(O)CC[C@H]2[C@@H]3CC[C@H]4CC(=O)CC[C@]4(C)[C@H]3CC[C@@]21C [Compound 14, 17α-allyl-androst-3-one-17β-ol] ?
Out: 71

In: Any idea what high spin content was measured for C=CC[C@]1(O)CC[C@H]2[C@@H]3CCC4=CC(=O)CC[C@]4(C)[C@H]3CC[C@@]21C [Compound 10, 17α-allyl-androst-4-en-3-one-17β-ol] ?
Out: 70

In: Any idea what high spin content was measured for C[C@]12CCC(=O)C[C@@H]1CC[C@@H]1[C@@H]2CC[C@@]2(C)[C@H]1CC[C@@]2(O)C/C=C/C[C@]1(O)CC[C@H]2[C@@H]3CC[C@H]4CC(=O)CC[C@]4(C)[C@H]3CC[C@@]21C [Compound 15] ?
Out: 33

In: Any idea what high spin content was measured for C[C@]12CCC(=O)C=C1CC[C@@H]1[C@@H]2CC[C@@]2(C)[C@H]1CC[C@@]2(O)C/C=C/C[C@]1(O)CC[C@H]2[C@@H]3CCC4=CC(=O)CC[C@]4(C)[C@H]3CC[C@@]21C [Compound 11] ?
Out: 92

---

# Test system: PC3 (AR−) androgen-insensitive human prostate adenocarcinoma cells
# run-description: MTT antiproliferative activity assay on PC3 cells
# Assay type: cell-based
# measurement-parameters: 48 h, read-out: IC50 (concentration of drug inhibiting cell growth by 50%), PC3 (AR−)
measured-attribute: pIC50
Note: pIC50 values are expressed as the negative base-10 logarithm of concentration in M.

In: Any idea what pIC50 was measured for CC(=O)O[C@]1(C(C)=O)CC[C@H]2[C@@H]3C=C(Cl)C4=CC(=O)[C@@H]5C[C@@H]5[C@]4(C)[C@H]3CC[C@@]21C [CPA, cyproterone acetate, reference compound] ?
Out: 4.07
